# testTarget: chicken gizzard smooth muscle myosin subfragment-1 chemically crosslinked to cardiac or skeletal actin (Gallus gallus)
pIC50: −log10 of the molar value.
propertyLabel: pIC50

Past entries and their recorded results:
>>> valuemeasured("CC(=O)N1CCC[C@H]1CNC(=O)c1ccc(-c2ccccc2)nc1NCCc1ccccn1")
4.80
>>> valuemeasured("CC(C)(C)OC(=O)N1CCC[C@@H]1CNC(=O)c1ccc(-c2ccccc2C#N)nc1NCCc1cccc(F)c1")
5.71

(P) NC(=O)c1ccc(-c2ccc(C(=O)NCc3cccnc3)c(NCCc3ccccn3)n2)cc1
(Q) N#Cc1ccccc1-c1ccc(C(=O)NC[C@H]2CCCN2C(=O)[C@@H](N)CCCN)c(NCCc2cccc(F)c2)n1
Asked: Sorting by pIC50 in descending order, would P or Q appear first? State your choice using its label.
Given back: Q
(Q: 7.28, P: 5.60)
